- Tested on: Fusarium oxysporum
- protocol_description: Antifungal activity against Fusarium oxysporum at 50 ug/disk
- Assay type: functional
Active and inactive are the calls of the source. No cut-off for these calls is given here.
measurement_type: Activity

molecule="Cc1cc([C@H]2CC[C@](C)(Cl)[C@@H](Br)C2)co1 [FUROCAESPITANE]" result=inactive
molecule="CC1(C)O[C@](C)([C@H]2CC[C@](C)(Cl)[C@@H](Br)C2)[C@H](O)C[C@H]1Br [CAESPITOL]" result=inactive
molecule=C[C@](Cl)(/C=C/Br)[C@@H](Cl)/C=C/C(=C\Cl)C(Cl)Cl result=inactive

====

Give measured mortality at 24 h, 0.5 mg/mL for each item. Keep answers brief.
- protocol_description: Toxicity in Artemia salina at 0.5 mg/mL after 24 hrs
- Type: organism-based
- conditions_used: in vivo, read-out: Activity
Could you give me the number in %? Just the number is fine.

Request: Please give the measured mortality at 24 h, 0.5 mg/mL for this compound: C=C1C[C@H](O)[C@H](Br)C(C)(C)[C@@]12CCC(C)=C(Cl)C2
Result: 100

Request: Please give the measured mortality at 24 h, 0.5 mg/mL for this compound: CC1(C)C[C@@H](Br)C[C@](C)(O)[C@@]12C=C/C(=C/Br)CC2
Result: 100
